Cited source for all entries: paper PMC4929566

assay: Metabolite profiling and pharmacokinetics in plasma (targeted HPLC-MS2); format: in vivo, humans; settings: human plasma, oral 60 mg 14C-EC, mean ± SEM n=8
The threshold is 0.05 µM. Values of Cmax beneath it are tagged criterion met; values meeting or exceeding it are tagged criterion not met.

Hello, I'm reviewing records and need to know if Cmax of O=S(=O)(O)Oc1cc(O)c2c(c1)O[C@H](c1ccc(O)c(O)c1)[C@H](O)C2 [(−)-Epicatechin-7-sulfate] is below 0.05 µM. Could you check? criterion met

Hello, I'm reviewing records and need to know if Cmax of O=C1CCC(Cc2ccc(O[C@@H]3O[C@H](C(=O)O)[C@@H](O)[C@H](O)[C@H]3O)c(O)c2)O1 (stereo partly drawn) is below 0.05 µM. Could you check? criterion not met

Hello, I'm reviewing records and need to know if Cmax of `COc1cc([C@H]2Oc3cc(O)cc(O[C@@H]4O[C@H](C(=O)O)[C@@H](O)[C@H](O)[C@H]4O)c3C[C@H]2O)ccc1O` is below 0.05 µM. Could you check? criterion met

Hello, I'm reviewing records and need to know if Cmax of COc1ccc([C@H]2Oc3cc(O)cc(OS(=O)(=O)O)c3C[C@H]2O)cc1O [4′-O-Methyl-(−)-epicatechin-5-sulfate] is below 0.05 µM. Could you check? criterion not met

Hello, I'm reviewing records and need to know if Cmax of COc1cc([C@H]2Oc3cc(OS(=O)(=O)O)cc(O)c3C[C@H]2O)ccc1O [3′-O-Methyl-(−)-epicatechin-7-sulfate, 3′-O-methyl-(−)-epicatechin-7-sulfate] is below 0.05 µM. Could you check? criterion not met

Hello, I'm reviewing records and need to know if Cmax of O=S(=O)(O)Oc1cc(O)cc2c1C[C@@H](O)[C@@H](c1ccc(O)c(O)c1)O2 [(−)-Epicatechin-5-sulfate] is below 0.05 µM. Could you check? criterion met

====

Give measured Metabolite present in urine, collection period 0–4 h for each item. Keep answers brief.
test: Metabolite profiling and quantification in urine (HPLC-MS2 with on-line radioactivity detector); assay type: in vivo, humans; conditions: human, oral 207 μmol 14C-EC, mean ± SEM n=8; – = not detected
Answer format: number, then unit.

Reported Metabolite present in urine, collection period 0–4 h ( O=S(=O)(O)Oc1cc(O)cc2c1C[C@@H](O)[C@@H](c1ccc(O)c(O)c1)O2 [(−)-Epicatechin-5-sulfate] ) = 1.3 ± 0.2 μ mol

Reported Metabolite present in urine, collection period 0–4 h ( O=C1CCC(Cc2cccc(OS(=O)(=O)O)c2)O1 (stereo not drawn) [5-(Phenyl)-γ-valerolactone-3′-sulfate] ) = 0.1 ± 0.1 μ mol

Reported Metabolite present in urine, collection period 0–4 h ( COc1cc([C@H]2Oc3cc(O)cc(OS(=O)(=O)O)c3C[C@H]2O)ccc1O [3′-O-Methyl-(−)-epicatechin-5-sulfate, 3′-O-methyl-(−)-epicatechin-5-sulfate] ) = 7.1 ± 0.9 μ mol

====

assay: Metabolite profiling and quantification in urine (HPLC-MS2 with on-line radioactivity detector); type: in vivo, humans; conditions: human, oral 207 μmol 14C-EC, mean ± SEM n=8; – = not detected
Would you mind labelling by Metabolite present in urine, collection period 8–12 h? At or over 0.5 μ mol is Y, under is N.

Form field: Metabolite present in urine, collection period 8–12 h at least 0.5 μ mol? Entry: COc1cc([C@H]2Oc3cc(O)cc(OS(=O)(=O)O)c3C[C@H]2O)ccc1O [3′-O-Methyl-(−)-epicatechin-5-sulfate, 3′-O-methyl-(−)-epicatechin-5-sulfate] N

Form field: Metabolite present in urine, collection period 8–12 h at least 0.5 μ mol? Entry: O=S(=O)(O)Oc1cc([C@H]2Oc3cc(O)cc(O)c3C[C@H]2O)ccc1O [(−)-Epicatechin-3′-sulfate, (−)-epicatechin-3′-sulfate] N

Form field: Metabolite present in urine, collection period 8–12 h at least 0.5 μ mol? Entry: O=C(O)CCC(O)Cc1cccc(OS(=O)(=O)O)c1 (stereo not drawn) N

Form field: Metabolite present in urine, collection period 8–12 h at least 0.5 μ mol? Entry: O=C(O)[C@H]1O[C@@H](Oc2cc([C@H]3Oc4cc(O)cc(O)c4C[C@H]3O)ccc2O)[C@H](O)[C@@H](O)[C@@H]1O [(−)-Epicatechin-3′-O-glucuronide, (−)-epicatechin-3′-O-β-D-glucuronide] Y

Form field: Metabolite present in urine, collection period 8–12 h at least 0.5 μ mol? Entry: O=C(O)CNC(=O)c1ccccc1 [Hippuric acid] Y

Form field: Metabolite present in urine, collection period 8–12 h at least 0.5 μ mol? Entry: O=C(O)CNC(=O)c1cccc(O)c1 [3′-Hydroxyhippuric acid] Y

Form field: Metabolite present in urine, collection period 8–12 h at least 0.5 μ mol? Entry: O=C1CCC(Cc2ccc(O)c(OS(=O)(=O)O)c2)O1 (stereo not drawn) Y

Form field: Metabolite present in urine, collection period 8–12 h at least 0.5 μ mol? Entry: O=C1CCC(Cc2cccc(OS(=O)(=O)O)c2)O1 (stereo not drawn) [5-(Phenyl)-γ-valerolactone-3′-sulfate] Y

====

Give measured AUC(0-t) for each item. Keep answers brief.
experiment: Metabolite profiling and pharmacokinetics in plasma (targeted HPLC-MS2); format: in vivo, humans; conditions: male; human plasma, oral 60 mg 14C-EC, mean ± SEM n=8; read-out: AUC0-24h
Answer format: numeric, µM·h implied, no suffix.

Reported AUC(0-t) ( COc1cc([C@H]2Oc3cc(O)cc(OS(=O)(=O)O)c3C[C@H]2O)ccc1O [3′-O-Methyl-(−)-epicatechin-5-sulfate, 3′-O-methyl-(−)-epicatechin-5-sulfate] ) = 0.915

Reported AUC(0-t) ( O=C1CCC(Cc2ccc(O)c(OS(=O)(=O)O)c2)O1 (centres unmarked) ) = 7.59

Reported AUC(0-t) ( O=C(O)[C@H]1O[C@@H](Oc2cc([C@H]3Oc4cc(O)cc(O)c4C[C@H]3O)ccc2O)[C@H](O)[C@@H](O)[C@@H]1O [(−)-Epicatechin-3′-O-glucuronide, (−)-epicatechin-3′-O-β-D-glucuronide] ) = 1.62

Reported AUC(0-t) ( O=S(=O)(O)Oc1cc([C@H]2Oc3cc(O)cc(O)c3C[C@H]2O)ccc1O [(−)-Epicatechin-3′-sulfate, (−)-epicatechin-3′-sulfate] ) = 0.633

Reported AUC(0-t) ( O=C1CCC(Cc2ccc(O)c(O[C@@H]3O[C@H](C(=O)O)[C@@H](O)[C@H](O)[C@H]3O)c2)O1 (some centres unmarked) ) = 1.91

====

assay: Metabolite profiling and pharmacokinetics in plasma (targeted HPLC-MS2); assay type: in vivo, humans; conditions: male; human plasma, oral 60 mg 14C-EC, mean ± SEM n=8
READOUT NAME: Cmax (nM)
Answer format: numeric, nM implied, no suffix.

Reported Cmax ( O=C1CCC(Cc2ccc(O)c(O[C@@H]3O[C@H](C(=O)O)[C@@H](O)[C@H](O)[C@H]3O)c2)O1 (some centres unmarked) ) = 125

Reported Cmax ( COc1cc([C@H]2Oc3cc(O)cc(OS(=O)(=O)O)c3C[C@H]2O)ccc1O [3′-O-Methyl-(−)-epicatechin-5-sulfate, 3′-O-methyl-(−)-epicatechin-5-sulfate] ) = 240

Reported Cmax ( O=C1CCC(Cc2ccc(O)c(OS(=O)(=O)O)c2)O1 (centres unmarked) ) = 272

Reported Cmax ( O=C(O)[C@H]1O[C@@H](Oc2cc([C@H]3Oc4cc(O)cc(O)c4C[C@H]3O)ccc2O)[C@H](O)[C@@H](O)[C@@H]1O [(−)-Epicatechin-3′-O-glucuronide, (−)-epicatechin-3′-O-β-D-glucuronide] ) = 359

Reported Cmax ( O=S(=O)(O)Oc1cc([C@H]2Oc3cc(O)cc(O)c3C[C@H]2O)ccc1O [(−)-Epicatechin-3′-sulfate, (−)-epicatechin-3′-sulfate] ) = 191

====

assay: Metabolite profiling and quantification in urine (HPLC-MS2 with on-line radioactivity detector); type: in vivo, humans; conditions: human, oral 207 μmol 14C-EC, mean ± SEM n=8; – = not detected
Give measured Metabolite present in urine, collection period 4–8 h for each item. Keep answers brief.
Answer format: numeric, μ mol implied, no suffix.

Reported Metabolite present in urine, collection period 4–8 h ( COc1cc([C@H]2Oc3cc(OS(=O)(=O)O)cc(O)c3C[C@H]2O)ccc1O [3′-O-Methyl-(−)-epicatechin-7-sulfate, 3′-O-methyl-(−)-epicatechin-7-sulfate] ) = 0.3

Reported Metabolite present in urine, collection period 4–8 h ( O=C(O)CCC(O)Cc1ccc(O[C@@H]2O[C@H](C(=O)O)[C@@H](O)[C@H](O)[C@H]2O)c(O)c1 (stereo partly shown) ) = 1.3

Reported Metabolite present in urine, collection period 4–8 h ( O=S(=O)(O)Oc1cc([C@H]2Oc3cc(O)cc(O)c3C[C@H]2O)ccc1O [(−)-Epicatechin-3′-sulfate, (−)-epicatechin-3′-sulfate] ) = 1.2

Reported Metabolite present in urine, collection period 4–8 h ( COc1ccc([C@H]2Oc3cc(O)cc(OS(=O)(=O)O)c3C[C@H]2O)cc1O [4′-O-Methyl-(−)-epicatechin-5-sulfate] ) = 0.1
